Each recorded value in this set is attributed to ChEMBL document CHEMBL3988442.

# key: entry, value: Percent Effect
# assayed-target: Histidine--tRNA ligase (Trypanosoma cruzi (strain CL Brener))
# Sequence (whole entry): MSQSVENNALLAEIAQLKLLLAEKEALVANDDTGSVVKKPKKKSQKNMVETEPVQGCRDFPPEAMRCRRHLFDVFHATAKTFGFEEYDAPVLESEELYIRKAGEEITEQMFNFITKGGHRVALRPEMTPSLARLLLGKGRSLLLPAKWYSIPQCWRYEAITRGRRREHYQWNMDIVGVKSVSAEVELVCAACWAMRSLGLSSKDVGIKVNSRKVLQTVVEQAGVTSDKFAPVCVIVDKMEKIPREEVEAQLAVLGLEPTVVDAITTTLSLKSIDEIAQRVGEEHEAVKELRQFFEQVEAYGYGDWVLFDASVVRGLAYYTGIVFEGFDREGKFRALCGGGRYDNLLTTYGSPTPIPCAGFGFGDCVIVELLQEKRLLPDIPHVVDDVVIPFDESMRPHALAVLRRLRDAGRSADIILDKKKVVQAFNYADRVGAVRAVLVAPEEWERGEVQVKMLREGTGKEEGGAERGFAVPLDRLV
# measurement-notes: Trypanosoma cruzi histidyl tRNA synthetase (Tc-HisRS)
# Assay type: functional
# Design: scale not given: direction of the effect not stated beside the values
# condition-set: 30 µM
Screen size: about 69,000 compounds; about 30 (0.04%) showed an effect of 50% or more. The sample holds strong results, similar compounds and a random draw of the others, so the mix is not that of the screen.
Write down the numeric answer in % and omit the unit.

A selection of reference data follows.
CCC1=N[C@@]2(CC[C@@H]3CN(C(=O)NCc4ccccc4)C[C@@H]32)C(=O)N1C: 3.83
CCOc1cccc(C2CC(=O)NCc3nc(N4CCCC4)sc32)c1 (stereo not drawn): 9.84

# input for lookup
Req: Entry `COCCNC(=O)[C@@]12CCO[C@@H]1CCN(Cc1scnc1C)C2` has what Percent Effect?
Resp: 4.3
